Below, each entry is listed alongside its reported melting point.

- structure_smiles_string: "Cn1c(=O)n(Cc2ccc(F)c(F)c2)c(=O)c2cc(C#CCn3ccnn3)ccc21"
  melting point: "167 to 169 °C"
- structure_smiles_string: "Cn1c(=O)n(Cc2ccc(CO)cc2)c(=O)c2cc(C#CCc3ccccc3)ccc21"
  melting point: "161 to 164 °C"

Turning now to a further record.
[Q] Which melting point is listed for Cn1c(=O)n(Cc2ccc(F)c(F)c2)c(=O)c2cc(C#CCc3ccc(Cl)cc3)ccc21 ?
[A] 163 to 165 °C

###

reported_endpoint: melting point

Example entries begin here.
- compound: "CN(C)C(=O)c1ccc(Cn2c(=O)c3cc(C#CCc4ccccc4)ccc3n(C)c2=O)cc1 [Example 19]"
  melting point: "171 to 173 °C"
- compound: "Cn1c(=O)n(Cc2ccc(Cl)cc2)c(=O)c2cc(C#CCc3ccccc3)ccc21 [Example 27]"
  melting point: "175 to 176 °C"
- compound: "Cn1c(=O)n(Cc2ccc(F)c(F)c2)c(=O)c2cc(C#CCn3cncn3)ccc21 [Example 33]"
  melting point: "185 to 187 °C"
- compound: "Cn1c(=O)n(Cc2cccc(F)c2)c(=O)c2cc(C#CCc3ccccc3)ccc21 [Example 26]"
  melting point: "143 to 144 °C"
- compound: "Cn1c(=O)n(Cc2ccc(Cl)c(Cl)c2)c(=O)c2cc(C#CCn3cncn3)ccc21 [Example 34]"
  melting point: "171 to 172 °C"

[Q] Which melting point is listed for Cn1c(=O)n(Cc2ccc(F)c(F)c2)c(=O)c2cc(C#CCn3ccnc3)ccc21 [Example 29] ?
[A] 163 to 165 °C

[Q] Which melting point is listed for Cn1c(=O)n(Cc2cccc(Cl)c2)c(=O)c2cc(C#CCc3ccccc3)ccc21 [Example 25] ?
[A] 164 to 166 °C

[Q] Which melting point is listed for Cn1c(=O)n(Cc2cccc(Cl)c2)c(=O)c2cc(C#CCc3ccc(Cl)cc3)ccc21 [Example 31] ?
[A] 169 to 171 °C
